Test system: Pyrenophora teres
Assay protocol: in vivo preventive test on Pyrenophora teres (barley)
Assay conditions: 500 ppm of active ingredient, evaluated 7-9 days after inoculation
Endpoint: Efficacy

Efficacy reported for this compound CC(c1cc(Cl)sc1Cl)N(C(=O)c1c(C(F)F)nn(C)c1Cl)C1CC1 (centres unmarked) : 95%

Efficacy reported for this compound "Cn1nc(C(F)F)c(C(=O)N(Cc2cc(-c3ccc(Cl)cc3)no2)C2CC2)c1F" : 100%

Efficacy reported for this compound "Cc1nn(-c2ccccc2)nc1CN(C(=O)c1c(C(F)F)nn(C)c1F)C1CC1" : 95%

Efficacy reported for this compound "Cc1nn(-c2ccccc2)nc1CN(C(=S)c1c(C(F)F)nn(C)c1F)C1CC1" : 100%

Efficacy reported for this compound "Cn1nc(C(F)F)c(C(=O)NC2(c3cc4ccccc4o3)CCCC2)c1F" : 89%

Efficacy reported for this compound "CN(Cc1nc(-c2ccccc2)no1)C(=O)c1c(C(F)F)nn(C)c1F" : 95%

Efficacy reported for this compound "Cc1occc1C1(NC(=O)c2c(C(F)F)nn(C)c2Cl)CCCC1" : 100%

Efficacy reported for this compound "Cn1nc(C(F)F)c(C(=O)N(Cc2c(Cl)cncc2Cl)C2CC2)c1F" : 100%

Efficacy reported for this compound "Cc1ccoc1CN(C)C(=O)c1c(C(F)F)nn(C)c1Cl" : 80%

Efficacy reported for this compound "Cn1nc(C(F)F)c(C(=S)N(Cc2cc3ccccc3o2)C2CC2)c1F" : 100%

Efficacy reported for this compound "Cn1nc(C(F)F)c(C(=O)N(Cc2ccco2)C2CC2)c1F" : 95%

Efficacy reported for this compound "Cn1nc(C(F)F)c(C(=O)N(Cc2ccnc3cc(Cl)cc(Cl)c23)C2CC2)c1Cl" : 94%

Efficacy reported for this compound "Cn1nc(C(F)F)c(C(=O)N(Cc2cc(C(F)(F)F)nc3ccccc23)C2CC2)c1Cl" : 90%

Efficacy reported for this compound Cc1cc(C(C)N(C(=O)c2c(C(F)F)nn(C)c2F)C2CC2)c(C)s1 (centres unmarked) : 100%

Efficacy reported for this compound "Cc1nc(-c2ccccc2)sc1CN(C)C(=O)c1c(C(F)F)nn(C)c1F" : 80%

Efficacy reported for this compound "Cc1c(CN(C(=S)c2c(C(F)F)nn(C)c2F)C2CC2)sc2ccccc12" : 100%

src = patent US9320276B2
